Overview of recorded Phage binding ELISA CD28 scFv signal in presence of CD28 for various binders
- Target under test: Anti-CD28 scFv (VH-linker 1-VL) (biotinylated for capture on neutravidin plates)
- Sequence (scFv, as listed by the source): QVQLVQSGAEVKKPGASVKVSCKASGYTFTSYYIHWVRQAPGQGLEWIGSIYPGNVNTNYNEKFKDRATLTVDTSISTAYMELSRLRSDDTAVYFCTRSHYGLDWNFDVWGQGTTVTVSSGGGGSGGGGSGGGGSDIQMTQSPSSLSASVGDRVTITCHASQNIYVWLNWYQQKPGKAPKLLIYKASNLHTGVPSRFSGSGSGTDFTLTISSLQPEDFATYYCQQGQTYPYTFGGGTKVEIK
- Assay name: phage ELISA, scFv captured on plate, competitor soluble CD28;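 note: crude clonal phage supernatants added to wells pre-incubated with soluble CD28 or with blocking buffer only as control, bound phage read out with HRP-linked anti-M13 antibody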
Outcome measure: Phage binding ELISA CD28 scFv signal in presence of CD28

Binder	Reported result
IHWCPINMWDKCYN [Phage-206]	0.203
MDWCPRFLWNECFN [Phage-126]	0.503
MDWCPKHLWIECFA [Phage-145]	0.132
MDWCPVILWDFCFN [Phage-142]	0.173
